tested on: B/Harbin/7/95; assay: Inhibition of cytopathic effect (CPE) of influenza virus replication in MDCK cells; details: Influenza B virus, MDCK, read-out: IC50 nM
assay-endpoint: IC50 (nM)

>>> measured("CC(=O)N[C@H]1[C@H]([C@H](OC(=O)NCCCCCCN)[C@H](O)CO)OC(C(=O)O)=C[C@@H]1NC(=N)N [Compound (2) TFA2]")
259
>>> measured("CC(=O)N[C@H]1[C@H]([C@H](O)[C@H](O)CO)OC(C(=O)O)=C[C@@H]1NC(=N)N [Zanamivir, reference compound]")
31.2
